system: 786-0 renal; assay: NCI-60 one-dose screen, 48 h (100 = growth as untreated, 0 = no growth, -100 = all killed); settings: 10 µM unless noted
Compounds without any hit were thinned out: in the full panel of roughly 83,000, 20% have a hit.
// NB: equality with 90% counts as no; only growth strictly below is yes

Some entries whose results are on file:
COc1cc(/C=C/C(=O)N2CCN(C(=O)/C=C/c3ccccc3)CC2)cc(OC)c1OC ... no
COc1cc(OC)c2sc(-c3ccc(-n4cncc4-c4ccc(N)cc4)cc3)nc2c1 ... yes
C=C(C)[C@H]1CC/C(C)=C/CC[C@]2(C)O[C@H]2CC/C(C=O)=C\C1O (some centres undefined) ... no
CCOC(=O)C(Cc1ccccc1)(C(=O)OCC)C(Br)C(=O)c1ccccc1 (centres undefined) ... yes
COc1ccc(-c2cc(Cc3cccs3)c(=O)n(Cn3cncn3)n2)cc1 ... no

Determine if Nc1ncc(-c2cnn(C3CCNCC3)c2)cc1-c1nc2cc(Cl)ccc2o1 shows growth strictly lower than 90%.
yes

Determine if O=C(Nc1cccc(-n2cc(-c3ccncc3)c(-c3ccc(O)c(Cl)c3)n2)c1)Nc1ccc(Cl)c(C(F)(F)F)c1 shows growth strictly lower than 90%.
yes
